Measurement protocol: Pharmacokinetics in C57Bl6 mice
Type: in vivo, mouse
Experimental conditions: 1 mg/kg peptide content, intravenous, 1 mg/kg
substances and their reported HL_λ_z [h] (intravenous)
Report the figure in h without appending any unit label.

Before answering, review these 3 worked examples.
Substance	HL_λ_z [h] (intravenous) (h)
Ac-FQSKpNVHVDGYFERL-Aib-AKLC(PEG)-NH2 [JBT2327] (FQSKPNVHVDGYFERLXAKLC; acetyl, D-Pro, Aib, Cys-PEG 21.0 kD, amide; MOD_RES (1)..(1): N-terminal acetylation; MOD_RES (5)..(5): D-Pro; MOD_RES (17)..(17): Xaa is 2-amino-isobutyric acid; MOD_RES (21)..(21): Cys-PEG; MOD_RES (21)..(21): C-terminal amidation) [PEG 21.0 kD, linear maleimide PEG]	4.2
Ac-FQSKpNVHVDGYFERL-Aib-AKLC(PEG)-NH2 [JBT2328] (FQSKPNVHVDGYFERLXAKLC; acetyl, D-Pro, Aib, Cys-PEG 29.1 kD, amide; MOD_RES (1)..(1): N-terminal acetylation; MOD_RES (5)..(5): D-Pro; MOD_RES (17)..(17): Xaa is 2-amino-isobutyric acid; MOD_RES (21)..(21): Cys-PEG; MOD_RES (21)..(21): C-terminal amidation) [PEG 29.1 kD, linear maleimide PEG]	10.1
Ac-FQSKpNVHVDGYFERL-Aib-AKLC(PEG)-NH2 [JBT2325] (FQSKPNVHVDGYFERLXAKLC; acetyl, D-Pro, Aib, Cys-PEG 5.3 kD, amide; MOD_RES (1)..(1): N-terminal acetylation; MOD_RES (5)..(5): D-Pro; MOD_RES (17)..(17): Xaa is 2-amino-isobutyric acid; MOD_RES (21)..(21): Cys-PEG; MOD_RES (21)..(21): C-terminal amidation) [PEG 5.3 kD, linear maleimide PEG]	0.16

Kindly consider the entry below.
I have this substance here, Ac-FQSKpNVHVDGYFERL-Aib-AKLC(PEG)-NH2 [JBT2326] (FQSKPNVHVDGYFERLXAKLC; acetyl, D-Pro, Aib, Cys-PEG 12.1 kD, amide; MOD_RES (1)..(1): N-terminal acetylation; MOD_RES (5)..(5): D-Pro; MOD_RES (17)..(17): Xaa is 2-amino-isobutyric acid; MOD_RES (21)..(21): Cys-PEG; MOD_RES (21)..(21): C-terminal amidation) , and I need its recorded HL_λ_z [h] (intravenous).
0.35

###

Assay system: human TFPI-1 (Homo sapiens, UniProt P10646)
Construct: human TFPI-1 (residues 29-282 fused at the C-terminus to a 10 His-tag); purchased R&D Systems 2974-PI
Sequence (P10646 29-282): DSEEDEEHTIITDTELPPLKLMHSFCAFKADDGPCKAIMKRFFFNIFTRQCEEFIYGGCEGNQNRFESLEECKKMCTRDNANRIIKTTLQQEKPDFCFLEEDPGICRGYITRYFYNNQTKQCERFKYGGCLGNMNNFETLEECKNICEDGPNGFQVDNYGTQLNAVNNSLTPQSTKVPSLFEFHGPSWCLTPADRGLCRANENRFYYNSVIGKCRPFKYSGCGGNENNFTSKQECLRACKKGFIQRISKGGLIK
Measurement protocol: BIAcore surface plasmon resonance, immobilized human TFPI-1
Type: binding
Experimental conditions: Table 6
Measured parameter: pKd
Value format note: pKd is -log10 of concentration (mol/L); just state the number.

What pKd value was documented for this substance, Ac-FQSKNNVFVFGYFERLRAKL-NH2 [JBT0297] ?
7.54

###

Test system: TFPI
Measurement protocol: IC50 ELISA | Mean IC50 [nM]
Measured parameter: pIC50
Scale explanation: pIC50 corresponds to minus log10 of a concentration expressed in moles per litre.

Requested field: pIC50. Item: Ac-FQSK-Nmg-NVFVFGYFERLRAKL-NH2 [JBT00000500]
7.03

This collection of values is drawn from patent US10800816B2.
